# TARGET_OR_SYSTEM: Cdk2(T182C) (C177A) (Homo sapiens, UniProt P24941, C177A/T182C)
# Construct: poly-histidine; made in house; host or cells: E. coli
# MEASUREMENT_NOTES: Kinetic thiol consumption assay with Cdk2 mutant T182C
# Type: binding
# Design: key: rate constant with Cdk2 ÷ rate constant with model thiol (fold)
# SETUP_CONDITIONS: Cdk2 T182C, additional mutation C177A
Doc: threshold 3 (exclusive). Items with Rate enhancement, Cdk2 T182C beneath it return 1; others return -1.

Solved cases (4 shown):
C=CC(=O)N(CC(=O)N1CCCC1)CC1CCCO1 (centres unmarked) [CA-080/239]    1
C=CC(=O)N(Cc1ccco1)Cc1cc2cc(C)ccc2o1 [CA-178]    1
C=CC(=O)N1CCC2(CC1)NC(=O)N(C)C2=O [CA-046]    1
C=CC(=O)N1CCN(c2cc(N3CCOCC3)ncn2)CC1 [CA-179]    -1

Problem: Please state whether Rate enhancement, Cdk2 T182C is below 3 for C=CC(=O)N(Cc1ccco1)C12CC3CC(CC(C3)C1)C2 [CA-157]
Solution: -1

###

Listed here: items and their measured Rate constant with Cdk2 F80C.
# TARGET_OR_SYSTEM: Cdk2(C177A, F80C) (Homo sapiens, UniProt P24941, C177A/F80C)
# Construct: poly-histidine; made in house; host or cells: E. coli
# MEASUREMENT_NOTES: Kinetic thiol consumption assay with Cdk2 mutant F80C, incl. kobs versus concentration (Kd, k2)
# Format: binding
# SETUP_CONDITIONS: Protein: Cdk2; cysteine position F80C; additional mutation C177A; in h^-1
Note: the reply should be a number with no unit written.

Solved entries (count: 6):
C=CC(=O)N1CC2CC2C1 (stereo not drawn)    0.002339
C=CC(=O)N1CC(n2cccn2)C1    0.005323
C=CC(=O)N1CCN(C(=O)OC(C)(C)C)CC1    0.002607
C=CC(=O)N(CCCN1CCOCC1)Cc1ccncc1    0.001553
C=CC(=O)N1CCC2(CCCCCC2)C1    0.01686
C=CC(=O)N1CCCC(N2C(=O)CC3(CCCC3)C2=O)C1 (stereo not drawn)    0.003744

Kindly review the next compound as well.
Please fill in: Rate constant with Cdk2 F80C reported for C=CC(=O)N1CCn2cccc2C1c1ccccc1 (stereo not drawn) = 0.01676

###

# TARGET_OR_SYSTEM: human cyclin-dependent kinase 2 (Cdk2) (Homo sapiens)
# Construct: poly-histidine; made in house; host or cells: E. coli
# MEASUREMENT_NOTES: Kinetic thiol consumption assay with wild type Cdk2 (C177)
# Format: binding
# SETUP_CONDITIONS: model thiol glutathione
OUTCOME_MEASURE: k(Cdk2)/k(GSH) rate enhancement
Note: the reply should be a number with no unit written.

Solved entries (count: 8):
C=CC(=O)N1CCCCCC1C/C=C/c1ccccc1 (centres unmarked)    0.3001
C=CC(=O)Nc1nc2cc3c(cc2s1)OC(F)(F)O3    1.519
C=CC(=O)NCC1CCCN1S(=O)(=O)c1ccc(C(=O)O)cc1 (centres unmarked)    0.7753
C=CC(=O)Nc1sc2c(c1C(=O)NC1CC1)CCC2    2.774
C=CC(=O)NCCc1c[nH]c2ccccc12    0.3555
C=CC(=O)N(C)C1CC(OCC)C12CCC2 (centres unmarked)    0.8182
C=CC(=O)N1CC2(CCC2)c2c(F)cccc21    2.89
C=CC(=O)NCc1ccc(-c2ccccc2)cc1    0.813

Please fill in: k(Cdk2)/k(GSH) rate enhancement reported for C=CC(=O)N(Cc1ccc2c(c1)CCO2)C1CCCC1 = 12.04

Please fill in: k(Cdk2)/k(GSH) rate enhancement reported for C=CC(=O)NC1(C(N)=O)CCCCC1 = 1.271

Please fill in: k(Cdk2)/k(GSH) rate enhancement reported for C=CC(=O)NC1c2ccccc2Oc2ccccc21 = 1.018

###

# TARGET_OR_SYSTEM: Cdk2[C177A, F80C, K278C] (Homo sapiens, UniProt P24941, C177A/F80C/K278C)
# Construct: poly-histidine; made in house; host or cells: E. coli
# MEASUREMENT_NOTES: Kinetic thiol consumption assay with mutant Cdk2 as model thiol
# Assay type: binding
# Set-up: unit not given here
# SETUP_CONDITIONS: 500 μM ligand, 5 μM thiol, phosphate buffer pH 8
Listed here: items and their measured Rate constant with Cdk2[C177A, F80C, K278C] (k(Cdk2_mut)).

Solved entries (count: 2):
C=CC(=O)Nc1ccccc1-c1ccccc1    0.03512
C=CC(=O)NC1(c2noc(C3CC3)n2)CCCC1    0.00154

Please fill in: Rate constant with Cdk2[C177A, F80C, K278C] (k(Cdk2_mut)) reported for C=CC(=O)NC1CCN(Cc2ccccc2)CC1 = 0.00196

Please fill in: Rate constant with Cdk2[C177A, F80C, K278C] (k(Cdk2_mut)) reported for C=CC(=O)NC1CC2CC1C1CCCC21 (stereo not drawn) = 0.0013

Please fill in: Rate constant with Cdk2[C177A, F80C, K278C] (k(Cdk2_mut)) reported for C=CC(=O)N1CCC2(CC1)NC(=O)C1(CCCCC1)N2 = 0.00208

Please fill in: Rate constant with Cdk2[C177A, F80C, K278C] (k(Cdk2_mut)) reported for C=CC(=O)N1CCC2(CCCCCC2)C1 = 0.00507

Please fill in: Rate constant with Cdk2[C177A, F80C, K278C] (k(Cdk2_mut)) reported for C=CC(=O)N1CC2CCCCCCC21 (stereo not drawn) = 0.00546

Please fill in: Rate constant with Cdk2[C177A, F80C, K278C] (k(Cdk2_mut)) reported for C=CC(=O)Nc1nc2ccccc2n1CCc1ccccn1 = 0.01242

Please fill in: Rate constant with Cdk2[C177A, F80C, K278C] (k(Cdk2_mut)) reported for C=CC(=O)NC1C[C@@H](C(=C)C)CC=C1C (stereo partly drawn) = 0.00342

Please fill in: Rate constant with Cdk2[C177A, F80C, K278C] (k(Cdk2_mut)) reported for C=CC(=O)N1CCN(c2cc(N3CCOCC3)ncn2)CC1 = 0.00719

###

Listed here: items and their measured k(Cdk2)/k(GSH) rate enhancement.
# TARGET_OR_SYSTEM: human cyclin-dependent kinase 2 (Cdk2) (Homo sapiens, UniProt P24941)
# Construct: poly-histidine; made in house; host or cells: E. coli
# MEASUREMENT_NOTES: Kinetic thiol consumption assay with wild type Cdk2 (C177)
# Assay type: binding
# SETUP_CONDITIONS: model thiol glutathione
Note: the reply should be a number with no unit written.

Solved entries (count: 3):
C=CC(=O)N1C(C(=O)c2ccccc2)C1c1ccccc1 (centres unmarked)    0.226
C=CC(=O)N1CCN(Cc2noc(C3CC3)n2)CC1    0.4376
C=CC(=O)NCC1(NC(=O)OC(C)(C)C)CCCCC1    2.839

Kindly review the next molecule as well.
Please fill in: k(Cdk2)/k(GSH) rate enhancement reported for C=CC(=O)NCc1ccc(F)cc1 = 1.213

###

# TARGET_OR_SYSTEM: human cyclin-dependent kinase 2 (Cdk2) (Homo sapiens, UniProt P24941)
# Construct: poly-histidine; made in house; host or cells: E. coli
# MEASUREMENT_NOTES: Kinetic thiol consumption assay with wild type Cdk2 (C177)
# Type: binding
# Design: key: k(Cdk2) divided by k(model thiol)
# SETUP_CONDITIONS: Cdk2 WT, no additional mutations
OUTCOME_MEASURE: Rate enhancement, Cdk2 WT
Note: the reply should be a number with no unit written.

Solved entries (count: 3):
C=CC(=O)Nc1ccc(C(=O)c2ccccc2)cc1    3.475
C=CC(=O)N1CCN(C(=O)OC(C)(C)C)c2ccccc21    2.982
C=CC(=O)NC1C2C3CCC(C3)C12 (centres unmarked)    0.1544

Please fill in: Rate enhancement, Cdk2 WT reported for C=CC(=O)N1CCN(Cc2ccc(Cl)cc2)CC1 = 0.574

Please fill in: Rate enhancement, Cdk2 WT reported for C=CC(=O)N1CCCC(N2C(=O)CC3(CCCC3)C2=O)C1 (centres unmarked) = 0.1258

Please fill in: Rate enhancement, Cdk2 WT reported for C=CC(=O)NC(C)c1ccc2c(c1)OCO2 (centres unmarked) = 0.6621

Please fill in: Rate enhancement, Cdk2 WT reported for C=CC(=O)NCc1ccc(-c2ccccc2)cc1 = 0.579

Please fill in: Rate enhancement, Cdk2 WT reported for C#CCN1CCCN(C(=O)C=C)CC1 = 1.03

Please fill in: Rate enhancement, Cdk2 WT reported for C=CC(=O)NC(C)c1cc(OC)c(OC)c(OC)c1 (centres unmarked) = 0.4606

Please fill in: Rate enhancement, Cdk2 WT reported for C=CC(=O)NC1c2ccccc2Oc2ccccc21 = 1.547

Please fill in: Rate enhancement, Cdk2 WT reported for C=CC(=O)N(Cc1ccco1)C12CC3CC(CC(C3)C1)C2 = 1.257

Cited source: patent US11415579B2
